Data origin: ChEMBL document CHEMBL4513216

Please respond with reported INHIBITION for every item in the list.
test system: Plasmodium falciparum; experiment: Screen against P. falciparum Asexual Blood Stage (ABS), at 5uM; type: functional, Dd2; conditions: tested at 5 uM
In all, about 65,000 compounds went through this assay and about 2,100 (3.2%) showed an effect of 50% or more. The median lay at about -52%. The entries come from a sample that favours strong results as a whole.
Give bare numbers, in %.

Please review the following examples before continuing.
compound: CC(C)(O)c1cn(C[C@H]2C[C@@H]3CCN2C[C@@H]3C(=O)N2CCOCC2)nn1
study_system: Plasmodium falciparum
value_observed: -62.4
//
compound: Cc1nc(CN2C[C@@H]3CN(C(=O)Cc4ccccn4)C[C@@H]3C2)cs1
study_system: Plasmodium falciparum
value_observed: -41.5
//
compound: O=C(Cc1c(F)cccc1F)N1CCN(CC(=O)N2CCCC2)CC1
study_system: Plasmodium falciparum
value_observed: -130
//
compound: CC(=O)N1CCC(CCNC(C)Cc2ccc(F)cc2)CC1 (centres undefined)
study_system: Plasmodium falciparum
value_observed: -0.762
//
compound: COCCN1CCN(Cc2ccncc2)c2ncccc2C1
study_system: Plasmodium falciparum
value_observed: 6.88
//
compound: CO[C@H]1CCN(Cc2cccs2)[C@@H]2CN(Cc3ccncc3)C[C@H]12
study_system: Plasmodium falciparum
value_observed: 61.5
//
compound: COCc1cncc2c1CCN(Cc1cccs1)C2
study_system: Plasmodium falciparum
value_observed: -1.55
//
compound: CN(C)C(=O)CN1CC=C(c2cnn(Cc3ccccc3)c2)CC1
study_system: Plasmodium falciparum
value_observed: -52.4

Hi team, please reply with INHIBITION for each item in this list.
1. Cc1nn(C)cc1C1=NS(=O)(=O)N(C)C(C(=O)Nc2ccc(Br)cc2)=C1
2. COCCNc1nc2c(c(NCCc3cccs3)n1)CCNCC2

Out:
1: 90; 2: 81.9

Hi team, please reply with INHIBITION for each item in this list.
1. O=C(NCC(=O)N1CCC2(CC1)OCCO2)c1ccoc1
2. COc1cccc(Cn2cc(C3=CCN(CC(=O)N(C)C)CC3)cn2)c1
3. COCCN1C[C@@H]2[C@@H](OC)CCN(Cc3cccc(C)n3)[C@@H]2C1
4. COCCNc1nc2c(c(NCc3cnc(C)c(C)c3)n1)CCNCC2
5. Cn1nc(-c2cccs2)cc1[C@H]1CN2CC[C@H]1C[C@@H]2CN
6. O=C1CO[C@H]2CN(Cc3cccnc3)C[C@H]2N1
7. CC(O)CN1CCC(CNCc2cccc(OC(F)(F)F)c2)CC1 (centres undefined)
8. Cc1nc(O)cc(CN2CC=C(c3cnn(-c4ccccc4)c3)CC2)n1

Out:
-196
-27.6
-1.19
-67.4
-26
-119
80.1
-90.2

Hi team, please reply with INHIBITION for each item in this list.
1. COc1cccc(S(=O)(=O)N2C[C@@H](N(C)C)[C@H](C(C)C)C2)c1
2. CC(O)CN1CCC(CNCc2cccc(C(F)(F)F)c2)CC1 (centres undefined)
3. COc1cccc(Cn2cc(C3=CCN(CCO)CC3)cn2)c1
4. O=c1[nH]ccn1CCCN1CC=C(c2cnn(-c3ccccc3)c2)CC1
5. CC(C)Nc1ccnc(N2Cc3cnc(C(C)(C)C)nc3C2)n1
6. Cc1c(C(=O)O)nnn1Cc1cccc(C(F)(F)F)c1
7. Cc1cc(CN2C[C@@H]3COC[C@]3(c3nnc(C)o3)C2)no1

Out:
[72.2, 83.1, 54.2, -235, 50.1, -66.5, -26.2]
